Source: patent US9465288B2

Assay: Ultraviolet-visible absorption spectrum, molecular extinction coefficient at 365 nm
Format: physicochemical
Conditions: 1×10^−4 mol/L acetonitrile solution; reference range 50 to 2000
Molecular extinction coefficient (365 nm) values by entry
QUANTITY NAME: Molecular extinction coefficient (365 nm)

| MOLECULE | RESULT |
| --- | --- |
| COc1ccc2ccc(OC)c([S+](c3ccccc3)c3ccccc3)c2c1.O=S1(=O)[N-]S(=O)(=O)C(F)(F)C(F)(F)C1(F)F [C. Ex. 2, reference compound] | 2010 |
| CCCCOc1ccc2ccc(OCCCC)c([S+](C(C)C)C(C)C)c2c1.O=S(=O)([N-]S(=O)(=O)C(F)(F)C(F)(F)C(F)(F)C(F)(F)F)C(F)(F)C(F)(F)C(F)(F)C(F)(F)F [Ex. 13] | 1030 |
| O=S1(=O)[N-]S(=O)(=O)C(F)(F)C(F)(F)C1(F)F.c1ccc([S+](c2ccccc2)c2ccccc2)cc1 [C. Ex. 1, reference compound] | 0 |
| CCCCOc1ccc2ccc(OCCCC)c([S+](CCCC)CCCC)c2c1.O=S1(=O)[N-]S(=O)(=O)C(F)(F)C(F)(F)C1(F)F [Ex. 4] | 700 |
| CCCCOc1ccc2c(OCCCC)ccc([S+](CCCC)CCCC)c2c1.O=S(=O)([N-]S(=O)(=O)C(F)(F)F)C(F)(F)F [Ex. 10] | 940 |
| CCCCOc1cc(OCCCC)c2ccccc2c1[S+](CCCC)CCCC.O=S(=O)([N-]S(=O)(=O)C(F)(F)C(F)(F)C(F)(F)C(F)(F)F)C(F)(F)C(F)(F)C(F)(F)C(F)(F)F [Ex. 5] | 100 |
| CCCCOc1ccc2ccc(OCCCC)c([S+](C(C)C)C(C)C)c2c1.O=S(=O)([N-]S(=O)(=O)C(F)(F)F)C(F)(F)F [Ex. 12] | 880 |
| CCCCOc1ccc([S+](CCCC)CCCC)c2c(OCCCC)cccc12.O=S(=O)([N-]S(=O)(=O)C(F)(F)C(F)(F)C(F)(F)C(F)(F)F)C(F)(F)C(F)(F)C(F)(F)C(F)(F)F [Ex. 8] | 620 |
| CCCCOc1ccc2ccc(OCCCC)c([S+](CCCC)CCCC)c2c1.O=S(=O)([N-]S(=O)(=O)C(F)(F)C(F)(F)C(F)(F)C(F)(F)F)C(F)(F)C(F)(F)C(F)(F)C(F)(F)F [Ex. 1] | 580 |
| CCCCOc1ccc([S+](CCCC)CCCC)c2c(OCCCC)cccc12.O=S(=O)([N-]S(=O)(=O)C(F)(F)F)C(F)(F)F [Ex. 7] | 570 |
| O=S(=O)([N-]S(=O)(=O)C(F)(F)C(F)(F)C(F)(F)C(F)(F)F)C(F)(F)C(F)(F)C(F)(F)C(F)(F)F.c1ccc([S+](c2ccccc2)c2ccccc2)cc1 [C. Ex. 4, reference compound] | 0 |

----------
Assay: Ultraviolet-visible absorption spectrum, molecular extinction coefficient at 365 nm
Assay type: physicochemical
Conditions: 1×10^−4 mol/L acetonitrile solution; reference range 50 to 2000
QUANTITY NAME: Molecular extinction coefficient (365 nm)

| COMPOUND | RESULT |
| --- | --- |
| CCCCOc1ccc2c(OCCCC)ccc([S+](CCCC)CCCC)c2c1.O=S(=O)([N-]S(=O)(=O)C(F)(F)C(F)(F)C(F)(F)C(F)(F)F)C(F)(F)C(F)(F)C(F)(F)C(F)(F)F | 810 |
| CCCCOc1ccc2ccc(OCCCC)c([S+](C)C)c2c1.O=S(=O)([N-]S(=O)(=O)C(F)(F)C(F)(F)C(F)(F)C(F)(F)F)C(F)(F)C(F)(F)C(F)(F)C(F)(F)F | 480 |
| CCCCOc1ccc2ccc(OCCCC)c([S+](CCCC)CCCC)c2c1.O=S(=O)([N-]S(=O)(=O)C(F)(F)F)C(F)(F)F | 560 |
| CCCCOc1ccc2ccc(OCCCC)c([S+](c3ccccc3)c3ccccc3)c2c1.O=S(=O)([N-]S(=O)(=O)C(F)(F)C(F)(F)C(F)(F)C(F)(F)F)C(F)(F)C(F)(F)C(F)(F)C(F)(F)F [C. Ex. 5, reference compound] | 2930 |
| CCCCOc1ccc2ccc(OCCCC)c([S+](CCCC)CCCC)c2c1.F[P-](F)(F)(F)(F)F [C. Ex. 3, reference compound] | 490 |
| CCCCCCCCOc1ccc2ccc(OCCCCCCCC)c([S+](C)C)c2c1.O=S(=O)([N-]S(=O)(=O)C(F)(F)F)C(F)(F)F | 440 |
| CCCCOc1ccc2ccc(OCCCC)c([S+](CCCC)CCCC)c2c1.O=S(=O)([O-])C(F)(F)C(F)(F)C(F)(F)C(F)(F)F | 690 |

----------
PGMEA (amount necessary for dissolving the test compound) values by entry
Test: Solubility: amount of PGMEA necessary for dissolving 100 mg of test compound
Type: physicochemical
Conditions: 100 mg test compound, 20±5° C., 30 minutes with 30-second strong shaking every 5 minutes; 300 μL or less desirable
QUANTITY NAME: PGMEA (amount necessary for dissolving the test compound) (µL)

| COMPOUND | RESULT |
| --- | --- |
| CCCCOc1ccc2ccc(OCCCC)c([S+](CCCC)CCCC)c2c1.O=S1(=O)[N-]S(=O)(=O)C(F)(F)C(F)(F)C1(F)F [Ex. 4] | 200 |
| CCCCOc1cc(OCCCC)c2ccccc2c1[S+](CCCC)CCCC.O=S(=O)([N-]S(=O)(=O)C(F)(F)C(F)(F)C(F)(F)C(F)(F)F)C(F)(F)C(F)(F)C(F)(F)C(F)(F)F [Ex. 5] | 100 |
| CCCCOc1ccc2c(OCCCC)ccc([S+](CCCC)CCCC)c2c1.O=S(=O)([N-]S(=O)(=O)C(F)(F)F)C(F)(F)F [Ex. 10] | 100 |
| CCCCOc1ccc2ccc(OCCCC)c([S+](CCCC)CCCC)c2c1.O=S(=O)([N-]S(=O)(=O)C(F)(F)C(F)(F)C(F)(F)C(F)(F)F)C(F)(F)C(F)(F)C(F)(F)C(F)(F)F [Ex. 1] | 100 |
| COc1ccc2ccc(OC)c([S+](c3ccccc3)c3ccccc3)c2c1.O=S1(=O)[N-]S(=O)(=O)C(F)(F)C(F)(F)C1(F)F [C. Ex. 2, reference compound] | 1400 |
| CCCCCCCCOc1ccc2ccc(OCCCCCCCC)c([S+](C)C)c2c1.O=S(=O)([N-]S(=O)(=O)C(F)(F)F)C(F)(F)F [Ex. 11] | 100 |
